assay: chemical genetic growth profiling, strain panel (AID 1159580);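 also: tested at 20 µM; growth read once vehicle control cultures reached saturation at 30 °C; 1 = growth at the plate median or of vehicle wells; lower values mean less growth of the strain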; details: S. cerevisiae deletion strains, growth OD, locus YKL085W, strain MDH1, hits give low values
Out of some 5,500 compounds screened, about 2,000 (36%) were called active. Not shown: some 18% with an inconclusive outcome. This is one part of the list.
Record form. Attribute: normalized growth. Fill in for each entry.
Please give only the number in your answer, with no unit.

Challenge: What value of measured normalized growth is listed for CC(=O)OC1CCC23C(=O)OC45CCC(C6=CC(=O)OC6)C4(C)CCC2C5CCC3(O)C1 (stereo not given) ?
Response given: 1

Challenge: Moving on to the next molecule: N#C/C(=C\c1ccc(O)cc1)C(=O)O
Response given: 0.973

Challenge: Moving on to the next molecule: Cn1nnnc1SCC1=C(C(=O)O)N2C(=O)C(NC(=O)C(OC=O)c3ccccc3)C2SC1 (stereo not given)
Response given: 1

Challenge: Moving on to the next molecule: C[C@]12CCC3C(CC[C@H]4C[C@@H](O)CC[C@]34C)C1CCC2=O (stereo not given in full)
Response given: 0.973

Challenge: Moving on to the next molecule: Cn1cnc([N+](=O)[O-])c1Sc1ncnc2nc[nH]c12
Response given: 1
